- targetDesc: Sodium channel protein type 1 subunit alpha (Homo sapiens) (UniProt P35498)
- procedureText: Modulator activity at human Nav1.1 expressed in human Flp-In-T-REx-293 cells assessed as half activation potential at 100 uM measured at holding potential of -120 mV by whole cell patch clamp electrophysiology assay
- Type: cell-based
quantityMeasured: V1/2 (mV)

# chemicalStructure, quantityMeasured, measurement
rows = [
    ("CN(C)/N=N/c1c(C(=O)NCc2ccccc2)nnn1Cc1c(F)cccc1F", "V1/2", -36.2),
    ("CN(C)/N=N/c1c(C(N)=O)nnn1-c1c(F)cccc1F", "V1/2", -35.6),
    ("CN(C)/N=N/c1c(C(N)=O)nnn1CCc1c(F)cccc1F", "V1/2", -31.9),
    ("CN(C)/N=N/c1c(C(=O)Nc2ccccc2)nnn1Cc1c(F)cccc1F", "V1/2", -36.5),
    ("CN(C)/N=N/c1c(C(=O)NC2CC2)nnn1Cc1c(F)cccc1F", "V1/2", -32.4),
    ("CNC(=O)c1nnn(Cc2c(F)cccc2F)c1/N=N/N(C)C", "V1/2", -39.5),
    ("NC(=O)c1cn(Cc2c(F)cccc2F)nn1", "V1/2", -41.3),
    ("COC(=O)CCCNC(=O)c1nnn(Cc2c(F)cccc2F)c1/N=N/N(C)C", "V1/2", -35.7),
    ("CN(C)/N=N/c1c(C(N)=O)nnn1Cc1c(F)cccc1F", "V1/2", -46.1),
    ("CN(C)/N=N/c1c(C(N)=O)nnn1Cc1ccccc1F", "V1/2", -30.9),
    ("CN(C)/N=N/c1c(C(N)=O)nnn1Cc1ccc(F)cc1F", "V1/2", -36.5),
]
